# target: human TGR5 receptor (Homo sapiens)
# Sequence (Q8TDU6 whole entry): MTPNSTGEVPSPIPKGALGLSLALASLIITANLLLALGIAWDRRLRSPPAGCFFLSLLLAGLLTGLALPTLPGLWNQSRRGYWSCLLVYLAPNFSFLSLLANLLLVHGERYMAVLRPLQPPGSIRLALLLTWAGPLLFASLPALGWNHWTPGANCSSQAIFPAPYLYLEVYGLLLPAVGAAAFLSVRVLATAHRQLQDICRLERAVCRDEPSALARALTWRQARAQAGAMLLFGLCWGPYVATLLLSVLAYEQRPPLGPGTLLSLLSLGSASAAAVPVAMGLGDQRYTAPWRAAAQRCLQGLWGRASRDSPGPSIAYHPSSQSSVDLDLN
pEC50: −log10 of the molar value.

compound: CN(C(=O)c1c(Oc2ccc(F)cc2)nc2ncccn12)c1ccc(Cl)cc1 [TRC210258]
pEC50: 6.66

====

# test.protocol: Pharmacokinetics in DIO hamsters
# Type: in vivo, hamster
# experimental.context: Golden Syrian, hamster, plasma, ip, 6 mg/kg

compound.structure: CN(C(=O)c1c(Oc2ccc(F)cc2)nc2ncccn12)c1ccc(Cl)cc1
uom: ng/mL
Cmax: 78.7
